Assay: qHTS assay for small molecule activators of the nuclear factor-kappa B (NF-kB) signaling pathway (AID 651749); also: % of control where 0% means no effect
Settings: NF-kB-bla ME-180 cells, beta-lactamase FRET ratio, 16 h; hits give high values
Records with an inconclusive call do not appear. Calls of active or inactive are those of the source. Calls follow the shape of the dose curve; as a rule, active = well fitted activation curve with a large enough effect in the signal ratio; inconclusive = small, poorly fitted or top-dose-only effect, or a change in a side signal; inactive = flat fitted curve, though single readings scatter; the % refers to the signal ratio.
EXPERIMENTAL_READOUT: activation

// below: answered molecules
| MOLECULE | activation |
| --- | --- |
| CC1(C)OC[C@@H]2O[C@@]3(C(=O)O)OC(C)(C)O[C@H]3[C@@H]2O1 | 0.144% (inactive) |
| CC(C)(C)CC(C)(C)c1ccc(O)c(-n2nc3ccccc3n2)c1 | 1.97% (inactive) |
| OC[C@H]1O[C@@H]2O[C@H]3[C@H](O)[C@@H](O)[C@@H](O[C@H]4[C@H](O)[C@@H](O)[C@@H](O[C@H]5[C@H](O)[C@@H](O)[C@@H](O[C@H]6[C@H](O)[C@@H](O)[C@@H](O[C@H]7[C@H](O)[C@@H](O)[C@@H](O[C@H]8[C@H](O)[C@@H](O)[C@@H](O[C@H]1[C@H](O)[C@H]2O)O[C@@H]8CO)O[C@@H]7CO)O[C@@H]6CO)O[C@@H]5CO)O[C@@H]4CO)O[C@@H]3CO | -1.13% (inactive) |
| O=C(O)c1ccc(S(=O)(=O)N(Cl)Cl)cc1 | -0.114% (inactive) |
| CC1(COc2ccc(CC3SC(=O)NC3=O)cc2)CCCCC1 (stereo not drawn) | 0.57% (inactive) |
| C=C[C@H]1CN2CC[C@H]1C[C@@H]2[C@@H](O)c1ccnc2ccc(OC)cc12 | -0.176% (inactive) |
| Oc1c(Cl)cc(Cl)c(Cl)c1Cc1c(O)c(Cl)cc(Cl)c1Cl | -1.07% (inactive) |

Okay, next one:
Requested read-out: activation. Entry: COc1ccc(C(Cl)=C(c2ccc(OC)cc2)c2ccc(OC)cc2)cc1 3.39% (inactive)

====

Assay: qHTS of pediatric cancer cell lines to identify multiple opportunities for drug repurposing: Primary screen for Rh41 cells (AID 1347108);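 also: luminescence drop marks cytotoxic hits; nearly all actives have a fitted effect of over 70% in size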
Conditions: Rh41 rhabdomyosarcoma viability, CellTiter-Glo luminescence, 48 h; series mostly up to 46 µM
Experimental: Drug repurposing or repositioning has been offered as a strategy for drug development in oncology programs. This approach has special potential for childhood cancers and other rare or orphan diseases, where the expected return on new drug development has been a disincentive to pharmaceuticals. […] We employed a titration-based paradigm (quantitative high-throughput screening or qHTS), where all compounds were tested at multiple concentrations for their effect on cell viability. […]
Records with an inconclusive call do not appear. Active and inactive are the calls of the source. The call rests on the fitted dose curve; in most records, active means well fitted cell-killing curve with a large enough effect; inconclusive means small, poorly fitted or top-dose-only effect; inactive means no such curve, though single readings can be large or run the other way.
# valid calls are T = active, F = inactive; nothing else

// known answers, use as guide
| COMPOUND | QUALITATIVE_LABEL |
| --- | --- |
| CC(C)[N+](C)(C)CC(O)COc1cccc2ccccc12 (centres undefined) | F |
| OC(C#CCN1CCCC1)(c1ccccc1)c1ccccc1 | F |
| COP(=O)(OC)OC(c1ccc(Cl)cc1)P(=O)(OC)OC (centres undefined) | F |
| O=C(O)c1ccc(S(=O)(=O)N(Cl)Cl)cc1 | F |

For CCNC(=O)/C=C/c1cccc(Br)c1 , which call appears in the assay record? F

====

Test system: PC26
Assay: qHTS profiling for inhibitors of Plasmodium falciparum proliferation (AID 504749); also: nearly all actives have a fitted effect of over 60% in size
Settings: P. falciparum in erythrocytes, SYBR Green DNA, 72 h; series mostly up to 28.7 µM
Results filed as inconclusive are left out. Activity calls are given as the source filed them. Calls come from the whole dose curve; as a rule, active = well fitted inhibition curve with a large enough effect; inconclusive = small, poorly fitted or top-dose-only effect; inactive = flat fitted curve, though single readings scatter.
# valid calls are label 1 (active), label 0 (inactive); nothing else

// known answers, use as guide
| MOLECULE | QUALITATIVE_LABEL |
| --- | --- |
| CCOC(=O)C(C#N)=C(c1ccccc1)c1ccccc1 | label 0 |
| CC(C)[N+](C)(C)CC(O)COc1cccc2ccccc12 (configuration not stated) | label 0 |
| CC(C)(C)CC(C)(C)c1ccc(O)c(-n2nc3ccccc3n2)c1 | label 0 |
| CCNC(=O)/C=C/c1cccc(Br)c1 | label 0 |
| CCOc1ccc(NC(C)=O)cc1 | label 0 |
| CNCCc1ccccn1 | label 0 |
| CC1=C(C(=O)O)N2C(=O)[C@@H](NC(=O)[C@H](N)c3ccccc3)[C@H]2SC1 | label 0 |
| CCCCNC(=O)NS(=O)(=O)c1ccc(N)cc1 | label 0 |

Would you kindly look at the next entry?
For O=C(c1ccc(F)cc1)C1CCN(CCn2c(=S)[nH]c3ccccc3c2=O)CC1 , which call appears in the assay record? label 1
